B1: Intersectin-2, residues 1129 to 1183; numbered along this chain, Q9NZM3 (parent)
chain: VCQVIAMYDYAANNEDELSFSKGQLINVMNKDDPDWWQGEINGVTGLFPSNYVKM

variants of: B1; experiment: abundance fitness (aPCA) (normalised: wild type 0, dead -1); higher = more abundant; growth selection in yeast, the domain comes from the species named; conditions: Homo sapiens
Field: class. Source value: abundance fitness. Ranges: group 1 = under -0.6, group 2 = from -0.6 up to -0.03, group 3 = -0.03 and over

Note: place this variant into its band. Item: `V53Q` group 2

Note: place this variant into its band. Item: `F48S` group 1

Note: place this variant into its band. Item: `V44N` group 2

Note: place this variant into its band. Item: `M29L` group 3

Note: place this variant into its band. Item: `K22Q` group 3

Note: place this variant into its band. Item: `N27C` group 2

Note: place this variant into its band. Item: `M29H` group 2

Note: place this variant into its band. Item: `G43I` group 1

Note: place this variant into its band. Item: `A6V` group 2

Note: place this variant into its band. Item: `M7C` group 3

Note: place this variant into its band. Item: `I41V` group 2

Note: place this variant into its band. Item: `I26V` group 2

Note: place this variant into its band. Item: `N42T` group 3

Note: place this variant into its band. Item: `V53L` group 1
